# TEST_SYSTEM: human orexin-2 receptor (Homo sapiens (Human))
# Sequence (O43614 whole entry): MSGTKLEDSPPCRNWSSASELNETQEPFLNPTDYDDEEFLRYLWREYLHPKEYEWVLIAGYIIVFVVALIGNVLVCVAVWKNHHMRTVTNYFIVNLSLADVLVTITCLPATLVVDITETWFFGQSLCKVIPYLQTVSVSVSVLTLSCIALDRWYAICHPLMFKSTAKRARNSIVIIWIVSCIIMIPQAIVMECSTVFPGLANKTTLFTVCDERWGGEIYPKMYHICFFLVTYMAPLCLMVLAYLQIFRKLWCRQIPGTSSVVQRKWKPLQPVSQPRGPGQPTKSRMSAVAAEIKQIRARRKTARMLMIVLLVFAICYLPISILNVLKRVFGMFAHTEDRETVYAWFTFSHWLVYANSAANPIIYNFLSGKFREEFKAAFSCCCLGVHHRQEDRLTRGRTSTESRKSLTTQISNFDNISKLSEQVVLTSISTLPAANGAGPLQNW
# ASSAY: Human orexin 2 receptor radioligand binding ([3H]-EMPA competition)
# EXPERIMENTAL_CONDITIONS: HEK293 cells stably expressing human orexin-2 receptor; [3H]-EMPA 5 nM final; apparent Ki=IC50/(1+C/Kd), Kd=2 nM; read-out: OR 2 Ki
pKi: −log10 of the molar value.
QUANTITY_NAME: pKi

Q: // pKi lookup, key: O=C(c1ccccc1-c1cccc(Cl)c1)N1CC2CN(c3nccc(-c4ccccc4)n3)CC2C1 (centres unmarked)
Ans: 5.88

A = COc1ccnc(N2CC3CN(C(=O)c4ccccc4-c4cccs4)CC3C2)n1 (centres unmarked)
B = O=C(c1ccccc1-c1cccs1)N1CC2CN(c3nccc(-c4ccccc4)n3)CC2C1 (centres unmarked)
Q: Which of the two items, A and B , has the greater recorded pKi? Please identify the chosen entry by its label.
Ans: A
(A: 7.44, B: 7.15)

I = COc1ccccc1S(=O)(=O)N1CC2CN(c3cnc4ccccc4n3)CC2C1 (centres unmarked)
II = Cc1nc2ccccc2nc1N1CC2CN(C(=O)c3ccccc3-c3ccccc3)CC2C1 (centres unmarked)
III = COc1ccc(C(=O)N2CC3CN(c4ncc(F)c(C)n4)CC3C2)c(-n2nccn2)c1 (centres unmarked)
IV = Cc1ccccc1C(=O)N1CC2CN(c3cnc4ccccc4n3)CC2C1 (centres unmarked)
V = Cc1cc(C)nc(N2CC3CN(S(=O)(=O)c4ccccc4-c4ccccc4)CC3C2)n1 (centres unmarked)
Q: Reorder: pKi, max to min. The response must list the labels following the requested ordering.
Ans: III, V, II, IV, I
(III: 7.77, V: 6.64, II: 6.35, IV: 6.10, I: 5.74)

A = COc1cc(OC)nc(N2CC3CN(C(=O)c4nc(C)sc4-c4ccccc4F)CC3C2)n1 (centres unmarked)
B = COc1ccc(C(=O)N2CC3CN(c4ncc(Cl)c(C)n4)CC3C2)c(-n2nccn2)c1 (centres unmarked)
Q: Kindly identify the item with the lower pKi figure among these two: A and B Please identify the chosen entry by its label.
Ans: A

1 = COc1ccnc(N2CC3CN(C(=O)c4ccccc4OC)CC3C2)n1 (centres unmarked)
2 = Cc1nc(N2CC3CN(C(=O)c4ccccc4-c4ncn(C)n4)CC3C2)nc(C)c1C (centres unmarked)
Q: Kindly identify the item with the lower pKi figure among these two: 1 and 2 Please identify the chosen entry by its label.
Ans: 1
(1: 5.42, 2: 8.15)

* * *

# TEST_SYSTEM: human orexin-2 receptor (Homo sapiens (Human))
# ASSAY: Human orexin 2 receptor radioligand binding ([3H]-EMPA competition)
# EXPERIMENTAL_CONDITIONS: HEK293 cells stably expressing human orexin-2 receptor; [3H]-EMPA 5 nM final; apparent Ki=IC50/(1+C/Kd), Kd=2 nM; read-out: OR 2 Ki
pKi: −log10 of the molar value.
QUANTITY_NAME: pKi

Q: Provide the documented pKi with human orexin-2 receptor (Homo sapiens (Human)) as the system for Cc1cc(C)nc(N2CC3CN(C(=O)c4cccc(F)c4-n4ccnn4)CC3C2)n1 (stereo not drawn)
Ans: 5.85

Q: Provide the documented pKi with human orexin-2 receptor (Homo sapiens (Human)) as the system for Cc1ccnc(-c2ccc(F)cc2C(=O)N2CC3CN(c4nc(C)cc(C)n4)CC3C2)c1 (stereo not drawn)
Ans: 6.29

Q: Provide the documented pKi with human orexin-2 receptor (Homo sapiens (Human)) as the system for COc1ccnc(N2CC3CN(C(=O)c4c(OC)ccc5ccccc45)CC3C2)n1 (stereo not drawn)
Ans: 6.76

Q: Provide the documented pKi with human orexin-2 receptor (Homo sapiens (Human)) as the system for Cc1nc(N2CC3CN(C(=O)c4cccc(F)c4-n4nccn4)CC3C2)nc(C)c1C (stereo not drawn)
Ans: 8.15

I = COc1ccnc(N2CC3CN(C(=O)c4ccccc4-c4cccc(Cl)c4)CC3C2)n1 (stereo not drawn)
II = CCOc1ccc2ccccc2c1C(=O)N1CC2CN(c3nc(C)cc(C)n3)CC2C1 (stereo not drawn)
Q: Kindly identify the item with the lower pKi figure among these two: I and II Please identify the chosen entry by its label.
Ans: I
